# credit: the supplement of paper PMC6897291

# Test system: U-2932
# Measurement protocol: growth inhibition by drug plus 177Lu-lilotomab satetraxetan (1 - RLU/untreated control) (fraction); higher = stronger inhibition
# Condition set: 10 nM; time (day): 6; 177Lu-lilotomab satetraxetan 1 ug/ml
Threshold rule: growth inhibition by drug plus 177Lu-lilotomab satetraxetan greater than or equal to 0.1 is 1; below that, -1.

Previously resolved entries follow.
{"Molecule": "Nc1nc(Cl)nc2c1ncn2[C@@H]1O[C@H](CO)[C@@H](O)[C@@H]1F [Clofarabine]", "Group": -1}
{"Molecule": "C[C@@H]1CN(CC(=O)Nc2ccc3c(c2)Cc2cccc(-c4cc(=O)cc(N5CCOCC5)o4)c2S3)C[C@H](C)O1", "Group": -1}

For this molecule, is measured growth inhibition by drug plus 177Lu-lilotomab satetraxetan 0.1 or higher? CCc1cncnc1N1CCN(Cc2nc3ccc(C(F)(F)F)cc3[nH]2)CC1
-1

Also, Nc1ccccc1NC(=O)c1ccc(CNc2nccc(-c3cccnc3)n2)cc1 [Mocetinostat (MGCD0103)] please.
1

Also, Cc1ccc(C(=O)N(CCCN)[C@@H](c2oc3cc(Cl)ccc3c(=O)c2Cc2ccccc2)C(C)C)cc1 please.
1

Also, C=CC[C@@H]1/C=C(\C)C[C@H](C)C[C@H](OC)[C@H]2O[C@@](O)(C(=O)C(=O)N3CCCC[C@H]3C(=O)O[C@H](/C(C)=C/[C@@H]3CC[C@@H](O)[C@H](OC)C3)[C@H](C)[C@@H](O)CC1=O)[C@H](C)C[C@@H]2OC [FK-506 (Tacrolimus)] please.
1

====

# System: U-2932
# Measurement protocol: growth inhibition by drug alone (1 - RLU/untreated control) (fraction); higher = stronger inhibition
# Condition set: 10 nM; time (day): 4; 177Lu-lilotomab satetraxetan 0 ug/ml
Structures can show the parent of a compound that is named as a salt.
growth inhibition by drug alone for assorted compounds
The response must contain the number and no unit.

Which growth inhibition by drug alone reading was recorded for the compound CC(C)(C)c1ccc(S(=O)(=O)/C=C/C#N)cc1 ?
0.0673

Also, CC(c1cc2ccccc2s1)N(O)C(N)=O (configuration not stated) please.
0.016

Also, CC1(C)CNc2cc(NC(=O)c3cccnc3NCc3ccncc3)ccc21 [Motesanib Diphosphate] please.
-0.0392

Also, Cc1[nH]c2ccccc2c1CCNCc1ccc(/C=C/C(=O)NO)cc1 please.
0.448

Also, COc1cc2/c(=N/c3ccc(Br)cc3F)nc[nH]c2cc1OCC1CCN(C)CC1 [Vandetanib (Zactima)] please.
-0.0325

Also, NC(=O)Nc1sc(-c2ccc(F)cc2)cc1C(N)=O please.
0.0553

Also, CCOc1ccc(Nc2nc(-c3c(C)nc4ccccn34)cs2)cc1 please.
0.209

Also, Nc1ncn([C@@H]2O[C@H](CO)[C@@H](O)[C@H]2O)c(=O)n1 please.
-0.0929

Also, C[N+](C)([O-])CCNc1ccc(NCC[N+](C)(C)[O-])c2c1C(=O)c1c(O)ccc(O)c1C2=O [Banoxantrone dihydrochloride] please.
-0.0255

Also, CN(C)C[C@@H]1CCn2cc(c3ccccc32)C2=C(C(=O)NC2=O)c2cn(c3ccccc23)CCO1 please.
0.0748

Also, O=C(c1cc(Cc2n[nH]c(=O)c3ccccc23)ccc1F)N1CCN(C(=O)C2CC2)CC1 please.
-0.023

Also, COc1cc(Nc2ncc(F)c(Nc3ccc4c(n3)N(COP(=O)(O)O)C(=O)C(C)(C)O4)n2)cc(OC)c1OC please.
-0.000602

Also, O=C(O)c1ccc2c(c1)nc(Nc1cccc(Cl)c1)c1ccncc12 [cx-4945 (Silmitasertib)] please.
-0.0226

Also, Cc1ccc(C(=O)Nc2ccc(CN3CCN(C)CC3)c(C(F)(F)F)c2)cc1C#Cc1cnc2cccnn12 please.
-0.101

Also, CC1(C)CCC(c2ccc(Cl)cc2)=C(CN2CCN(c3ccc(C(=O)NS(=O)(=O)c4ccc(N[C@H](CCN5CCOCC5)CSc5ccccc5)c(S(=O)(=O)C(F)(F)F)c4)cc3)CC2)C1 please.
-0.0018

====

# Tested on: RIVA
# Measurement protocol: growth inhibition by drug plus 177Lu-lilotomab satetraxetan (1 - RLU/untreated control) (fraction); higher = stronger inhibition
# Condition set: 100 nM; time (day): 4; 177Lu-lilotomab satetraxetan 0.5 ug/ml
growth inhibition by drug plus 177Lu-lilotomab satetraxetan for assorted compounds
The response must contain the number and no unit.

{"Compound": "CC(=O)O[C@]1(C(C)=O)CC[C@H]2[C@@H]3C=C(C)C4=CC(=O)CC[C@]4(C)[C@H]3CC[C@@]21C [Megestrol Acetate]", "Recorded number": 0.522}

Given the entry N#CCNC(=O)c1ccc(-c2ccnc(Nc3ccc(N4CCOCC4)cc3)n2)cc1 , what growth inhibition by drug plus 177Lu-lilotomab satetraxetan was observed with RIVA?
0.434

Also, CCn1c(-c2nonc2N)nc2c(C#CC(C)(C)O)ncc(OC[C@H]3CCCNC3)c21 please.
0.41

Also, O=c1cc(-c2cccc3c2Sc2ccccc2S3)oc(N2CCOCC2)c1 please.
0.399

Also, CCOc1cc(C(=O)Nc2ccc(Cl)c(-c3nc4ccccc4[nH]3)c2)cc(OCC)c1OCC please.
0.648

Also, O=C(/C=C/c1cccc(S(=O)(=O)Nc2ccccc2)c1)NO please.
0.935

Also, COc1cc(Nc2c(C#N)cnc3cc(OCCCN4CCN(C)CC4)c(OC)cc23)c(Cl)cc1Cl [Bosutinib (SKI-606)] please.
0.36

Also, C[C@]1(O)C[C@@H](c2nc(-c3ccc4ccc(-c5ccccc5)nc4c3)c3c(N)nccn32)C1 please.
0.4

====

# System: U-2932
# Measurement protocol: growth inhibition by drug plus 177Lu-lilotomab satetraxetan (1 - RLU/untreated control) (fraction); higher = stronger inhibition
# Condition set: 1000 nM; time (day): 3; 177Lu-lilotomab satetraxetan 1 ug/ml
Structures can show the parent of a compound that is named as a salt.
growth inhibition by drug plus 177Lu-lilotomab satetraxetan for assorted compounds

Below, each entry is followed by its recorded growth inhibition by drug plus 177Lu-lilotomab satetraxetan result.
{"Compound": "COc1nc(-c2ccc3c(c2)OCO3)n(-c2ccc(NC(=O)CSc3ccccc3)cc2)n1", "Assay system": "U-2932", "Result": -0.197}
{"Compound": "Cn1cc(-c2ccc3nnc(Sc4ccc5ncccc5c4)n3n2)cn1", "Assay system": "U-2932", "Result": 0.0614}
{"Compound": "Nc1cc(C(F)(F)F)c(-c2cc(N3CCOCC3)nc(N3CCOCC3)n2)cn1", "Assay system": "U-2932", "Result": 0.508}

Which growth inhibition by drug plus 177Lu-lilotomab satetraxetan reading was recorded for the compound CC[C@@H]1C(=O)N(C)c2cnc(Nc3ccc(C(=O)N[C@H]4CC[C@H](N5CCN(CC6CC6)CC5)CC4)cc3OC)nc2N1C(C)C ?
0.917

Also, COc1cc2ncnc(Nc3cccc(Br)c3)c2cc1OC please.
-0.0997

Also, CN1CC[C@H](c2c(O)cc(O)c3c(=O)cc(-c4ccccc4Cl)oc23)[C@H](O)C1 [Flavopiridol hydrochloride] please.
0.965

====

# Test system: RIVA
# Measurement protocol: growth inhibition by drug alone (1 - RLU/untreated control) (fraction); higher = stronger inhibition
# Condition set: 100 nM; time (day): 5; 177Lu-lilotomab satetraxetan 0 ug/ml
Observation type: growth inhibition by drug alone
The response must contain the number and no unit.

{"Compound": "OCCn1cc(-c2cnc3nnn(Cc4ccc5ncccc5c4)c3n2)cn1", "Assay system": "RIVA", "growth inhibition by drug alone": -0.299}
{"Compound": "CC(C)C[C@H](NC(=O)[C@H](Cc1ccccc1)NC(=O)c1cnccn1)B(O)O [Bortezomib (Velcade)]", "Assay system": "RIVA", "growth inhibition by drug alone": 0.978}
{"Compound": "O=C(Cc1ccc(-c2ccc(OCCN3CCOCC3)cc2)cn1)NCc1ccccc1", "Assay system": "RIVA", "growth inhibition by drug alone": 0.676}

Which growth inhibition by drug alone reading was recorded for the compound Nc1ccccc1NC(=O)c1ccc(CNC(=O)OCc2cccnc2)cc1 [Entinostat (MS-275, SNDX-275)] ?
0.174

Also, Cc1ccc(NC(=O)c2ccc(CN3CCN(C)CC3)cc2)cc1Nc1nccc(-c2cccnc2)n1 [Imatinib (Gleevec)] please.
-0.289

Also, CCOc1ccn(-c2ccc(F)cc2)c(=O)c1C(=O)Nc1ccc(Oc2ccnc(N)c2Cl)c(F)c1 please.
-0.000157

====

# Tested on: RIVA
# Measurement protocol: growth inhibition by drug plus 177Lu-lilotomab satetraxetan (1 - RLU/untreated control) (fraction); higher = stronger inhibition
# Condition set: 10 nM; time (day): 6; 177Lu-lilotomab satetraxetan 0.5 ug/ml
Where a name gives a salt, the structure may show the parent alone.
Observation type: growth inhibition by drug plus 177Lu-lilotomab satetraxetan
The response must contain the number and no unit.

{"Molecule": "NC(=O)c1ccc(I)c([N+](=O)[O-])c1 [Iniparib (BSI-201)]", "Assay system": "RIVA", "Recorded number": 0.513}
{"Molecule": "CC[C@@H]1/C=C(\\C)C[C@H](C)C[C@H](OC)[C@H]2O[C@@](O)(C(=O)C(=O)N3CCCC[C@H]3C(=O)O[C@H](/C(C)=C/[C@@H]3CC[C@H](Cl)[C@H](OC)C3)[C@H](C)[C@@H](O)CC1=O)[C@H](C)C[C@@H]2OC [Pimecrolimus]", "Assay system": "RIVA", "Recorded number": 0.701}
{"Molecule": "Nc1cccc2c1C(=O)N(C1CCC(=O)NC1=O)C2=O (stereo unspecified) [Pomalidomide]", "Assay system": "RIVA", "Recorded number": 0.555}
{"Molecule": "O=c1[nH]cc(F)c(=O)[nH]1 [Adrucil (Fluorouracil)]", "Assay system": "RIVA", "Recorded number": 0.555}
{"Molecule": "Nc1nc(Cl)nc2c1ncn2[C@H]1C[C@H](O)[C@@H](CO)O1 [Cladribine]", "Assay system": "RIVA", "Recorded number": 0.611}
{"Molecule": "CN1CC[C@H](c2c(O)cc(O)c3c(=O)cc(-c4ccccc4Cl)oc23)[C@H](O)C1 [Flavopiridol hydrochloride]", "Assay system": "RIVA", "Recorded number": 0.567}
{"Molecule": "COc1ccc(S(=O)(=O)Nc2cccnc2Nc2ccc(O)cc2)cc1", "Assay system": "RIVA", "Recorded number": 0.533}
{"Molecule": "CS(=O)(=O)CCNCc1ccc(-c2ccc3ncnc(Nc4ccc(OCc5cccc(F)c5)c(Cl)c4)c3c2)o1 [Lapatinib Ditosylate (Tykerb)]", "Assay system": "RIVA", "Recorded number": 0.674}

Which growth inhibition by drug plus 177Lu-lilotomab satetraxetan reading was recorded for the molecule Fc1cc(-c2cccc3ncc(-c4cnn(C5CCNCC5)c4)nc23)cc(F)c1CN1CCOCC1 ?
0.593

Also, COC(=O)Nc1nc2cc(C(=O)c3cccs3)ccc2[nH]1 [Nocodazole] please.
0.547

Also, CCOc1ccc(Cc2cc([C@@H]3O[C@H](CO)[C@@H](O)[C@H](O)[C@H]3O)ccc2Cl)cc1 [Dapagliflozin] please.
0.658

Also, Cc1ccc(NC(=O)c2ccc(CN3CC[C@H](N(C)C)C3)c(C(F)(F)F)c2)cc1Nc1nccc(-c2cncnc2)n1 [Bafetinib (INNO-406)] please.
0.658

Also, O=C(NCCS(=O)(=O)c1ccc(C(F)(F)F)cn1)c1ccc(Cl)cc1 please.
0.579

Also, N#Cc1ccc(NC(=O)Nc2ccccc2Br)c2n[nH]nc12 please.
0.619

Also, CN(C)C/C=C/C(=O)Nc1cc2c(Nc3ccc(F)c(Cl)c3)ncnc2cc1O[C@H]1CCOC1 [Afatinib (BIBW2992)] please.
0.558

Also, C[N+](C)([O-])CCNc1ccc(NCC[N+](C)(C)[O-])c2c1C(=O)c1c(O)ccc(O)c1C2=O [Banoxantrone dihydrochloride] please.
0.498

Also, COc1ccc(CCN(C)CCCOc2ccc(S(=O)(=O)c3c(C(C)C)n(C)c4ccccc34)cc2)cc1OC please.
0.661

Also, O=C(O)Cc1cccc(OCCCN(Cc2cccc(C(F)(F)F)c2Cl)CC(c2ccccc2)c2ccccc2)c1 please.
0.677

Also, Cc1cn(-c2cc(NC(=O)c3ccc(C)c(Nc4nccc(-c5cccnc5)n4)c3)cc(C(F)(F)F)c2)cn1 [Nilotinib (AMN-107)] please.
0.537

Also, CNC(=O)c1ccc(C)c(-n2c(C)cc(OCc3ccc(F)cc3F)c(Br)c2=O)c1 please.
0.522

Also, CCCC(=O)[O-].[Na+] [Sodium butyrate] please.
0.51
